subject.of.test: Receptor tyrosine-protein kinase erbB-2 (Homo sapiens)
assay.name: Her2 expression decrease, cell viability multiplex – SKBR3 breast tumor cells, AlphaScreen, ATP viability, primary screen (AID 461);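 also: lower value means less Her2 protein in the cells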
run.parameters: 18-24 h, at 10 µM, active compounds read low
endpoint.name: Her2 level (%)
The response must be a number in % with no trailing unit.

Cc1cc(NS(=O)(=O)c2ccc(NC(=O)COc3ccccc3C(C)C)cc2)no1; 90.5
COc1cccc(C2C(C(=O)c3ccc(C)o3)=C(O)C(=O)N2CCCN(C)C)c1 (stereo not given); 90.5
CCOC(=O)c1ccc2[nH]c3c(c2c1)CN(C)CC3; 87.5

Dear colleague, I am looking for the recorded Her2 level of the following molecule: c1nc(NCC2CCCO2)c2[nH]cnc2n1 (stereo not given) 91.5

Tell me the measured Her2 level of c1ccc(Cn2nnc3c(N4CCCCCC4)ncnc32)cc1 , please. 88

The measured values listed here are drawn from PubChem BioAssay.
